Assay: Oral bioavailability in Han Wistar rat at 1 mg/kg, iv and 2.5 mg/kg, po
Assay type: ADME, organism-based
Details: in vivo
MEASURE_NAME: bioavailability (%)
Expressed in %, but write only the number.

Return bioavailability (reported value) for this molecule: `C[C@@H](C(=O)N1CCOCC1)N1CC[C@H](NS(=O)(=O)c2ccc3cc(Cl)ccc3c2)C1=O` 85

* * *

Test: Plasma clearance in Han Wistar rat at 1 mg/kg, iv and 2.5 mg/kg, po
Assay type: ADME, organism-based
MEASURE_NAME: clearance (mL/min/kg)
Please respond with the number in mL/min/kg and leave the unit unwritten.

Below, 4 compounds whose answers are already recorded.
Using the record for `C[C@@H](C(=O)N1CCOCC1)N1CC[C@H](N(CC(N)=O)S(=O)(=O)c2ccc3cc(Cl)ccc3c2)C1=O` , state its measured clearance. 24

Please report clearance for the following compound: `C[C@@H](C(=O)N1CCOCC1)N1CC[C@H](N(CC(=O)O)S(=O)(=O)c2ccc3cc(Cl)ccc3c2)C1=O` 37

Tell me measured clearance for `C[C@@H](C(=O)N1CCOCC1)N1CC[C@H](NS(=O)(=O)c2ccc3cc(Cl)ccc3c2)C1=O` please. 13

Read the entry `C[C@@H](C(=O)N1CCOCC1)N1CC[C@H](N(C)S(=O)(=O)c2ccc3cc(Cl)ccc3c2)C1=O` and write its reported clearance. 15

Next:
Respond only with clearance recorded for `CCC(=O)CN([C@H]1CCN([C@@H](C)C(=O)N2CCOCC2)C1=O)S(=O)(=O)c1ccc2cc(Cl)ccc2c1` 37

* * *

Test: Volume of distribution in Han Wistar rat at 1 mg/kg, iv and 2.5 mg/kg, po
Type: ADME, organism-based
Conditions: in vivo, read-out: Vss
API: label(entry) gives true if the entry's Vd is strictly smaller than 0.5 L/kg; on equality or larger values it gives false.

Solved cases (3 shown):
Record `CCC(=O)CN([C@H]1CCN([C@@H](C)C(=O)N2CCOCC2)C1=O)S(=O)(=O)c1ccc2cc(Cl)ccc2c1` : is its Vd strictly below 0.5 L/kg? false

Strictly below 0.5 L/kg: is that where Vd of `C[C@@H](C(=O)N1CCOCC1)N1CC[C@H](N(CC(=O)O)S(=O)(=O)c2ccc3cc(Cl)ccc3c2)C1=O` sits? true

Just wondering, is Vd of `C[C@@H](C(=O)N1CCOCC1)N1CC[C@H](NS(=O)(=O)c2ccc3cc(Cl)ccc3c2)C1=O` below 0.5 L/kg? false

Now, please, on to the next compound.
Check if Vd falls below 0.5 L/kg for `C[C@@H](C(=O)N1CCOCC1)N1CC[C@H](N(C)S(=O)(=O)c2ccc3cc(Cl)ccc3c2)C1=O` . true

* * *

Below, each of the compounds is paired with its reported chromatographic logD value.
Experiment: Lipophilicity, log D by CHI assay at pH 7.4
Format: physicochemical
Conditions: buffer, read-out: Log D
The reply should be a number, written without any unit.

Before answering, review these 2 worked examples.
Write down chromatographic logD measured for item `C[C@@H](C(=O)N1CCOCC1)N1CC[C@H](NS(=O)(=O)c2ccc3cc(Cl)ccc3c2)C1=O` 2.2

Tell us which chromatographic logD value is on record for `C[C@@H](C(=O)N1CC2CNCC(C2)C1)N1CC[C@H](NS(=O)(=O)c2ccc3cc(Cl)ccc3c2)C1=O` 1.47

Next:
Supply recorded chromatographic logD for `C[C@@H](C(=O)N1CC2CCC1CC2)N1CC[C@H](NS(=O)(=O)c2ccc3cc(Cl)ccc3c2)C1=O` here. 2.94

* * *

Test: Oral bioavailability in Beagle dog at 1 mg/kg, iv and 1 mg/kg, po
Type: ADME, organism-based, Canis lupus familiaris
Conditions: in vivo
MEASURE_NAME: bioavailability (%)
Hi! Could you send only the number? It should be in %, unit omitted.

Recall and state the measured bioavailability for `C[C@@H](C(=O)N1CCOCC1)N1CC[C@H](NS(=O)(=O)c2ccc3cc(Cl)ccc3c2)C1=O` . 100

* * *

Listing of recorded half-life by entry.
Assay: Half life in Han Wistar rat at 1 mg/kg, iv and 2.5 mg/kg, po
Format: ADME, organism-based
Settings: in vivo

Complete the entry with half-life for `C[C@@H](C(=O)N1CCOCC1)N1CC[C@H](N(CC(N)=O)S(=O)(=O)c2ccc3cc(Cl)ccc3c2)C1=O` 18 min

// fetch half-life given entry `CCC(=O)CN([C@H]1CCN([C@@H](C)C(=O)N2CCOCC2)C1=O)S(=O)(=O)c1ccc2cc(Cl)ccc2c1` 30 min

Provide only the value of recorded half-life for `C[C@@H](C(=O)N1CCOCC1)N1CC[C@H](N(C)S(=O)(=O)c2ccc3cc(Cl)ccc3c2)C1=O` 30 min

Give the value of half-life reported for the following: `C[C@@H](C(=O)N1CCOCC1)N1CC[C@H](NS(=O)(=O)c2ccc3cc(Cl)ccc3c2)C1=O` 54 min

Here is another compound to look at.
Answer with reported half-life of `C[C@@H](C(=O)N1CCOCC1)N1CC[C@H](N(CC(=O)O)S(=O)(=O)c2ccc3cc(Cl)ccc3c2)C1=O` 12 min

* * *

Test: Half life in Beagle dog at 1 mg/kg, iv and 1 mg/kg, po
Type: ADME, organism-based, Canis lupus familiaris
Conditions: in vivo
MEASURE_NAME: half-life
Give the value; after it, write the unit.

Report measured half-life; entry is `C[C@@H](C(=O)N1CCOCC1)N1CC[C@H](NS(=O)(=O)c2ccc3cc(Cl)ccc3c2)C1=O` 126 min
